All figures here come from patent US20010036952A1.

A short record of pKi observed with FKBP12 (Homo sapiens, UniProt P62942) follows.
Sequence (P62942 whole entry, species assumed): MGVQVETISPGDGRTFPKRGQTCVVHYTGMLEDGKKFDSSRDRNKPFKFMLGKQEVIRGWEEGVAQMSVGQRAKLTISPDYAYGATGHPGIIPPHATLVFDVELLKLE
One number for each entry, as −log10 of the molar value.

Worked examples follow.
compound | assay_endpoint | measured
O=C(C(=O)N1CCCCC1C(=O)OCCCCc1ccccc1)c1ccccc1 (stereo not shown) [Compound 13] | pKi | 6.46
O=C(C(=O)N1CCCCC1C(=O)OCCc1ccccc1)c1ccccc1 (stereo not shown) [Compound 14] | pKi | 5.96
COc1cc(C(=O)C(=O)N2CCCCC2C(=O)OCCCCc2ccccc2)cc(OC)c1OC (stereo not shown) [Compound 23] | pKi | 7.72
O=C(C(=O)N1CCCCC1C(=O)OCCCCC1CCCCC1)c1ccccc1 (stereo not shown) [Compound 15] | pKi | 6.40
COC(=O)C(=O)N1CCCCC1C(=O)OCc1ccccc1 (stereo not shown) [Compound 16] | pKi | 4.10
O=C(C(=O)N1CCCCC1C(=O)OCc1ccccc1)c1ccco1 (stereo not shown) [Compound 20] | pKi | 5.52

Please fill in: pKi reported for O=C(C(=O)N1CCCCC1C(=O)OCc1ccccc1)c1ccccc1 (stereo not shown) [Compound 10] = 5.82
